FYI, the data here is from PubChem BioAssay (NCI).

# System: CCRF-CEM leukemia
# Assay Method Text: NCI-60 one-dose screen, 48 h
# Details: 10 µM
About 83,000 compounds went through this panel and 20% of them were active in at least one assay; those are over-represented in the sample as a whole. The source made the active and inactive calls. How the source made its calls: active means growth percent below 10; inactive means the rest.
Assign a class; possible classes are active, inactive

See these solved cases before continuing.
Q: Fill in: this test's call for Cc1ccc(C(=O)Nc2ccc(CN3CCN(C)CC3)c(C(F)(F)F)c2)cc1C#Cc1cnc(N)c2ccc(C#N)cc12 is ___
A: active

Q: Check the results log: what was the call for COc1ccc(-c2nc(SCC(C)C)nc(Nc3ccc([N+](=O)[O-])cc3)c2C#N)cc1 ?
A: inactive

Q: Tell me the recorded outcome of this test for O=C(O)CS(=O)c1ccc(Cl)cc1 (stereo unspecified) .
A: inactive

Q: # lookup: test call for CNc1ccc(Nc2ccc(S(=O)(=O)O)cc2)c2c1C(=O)c1ccccc1C2=O
A: inactive

Q: Status in this test for CC(O)C(N)=O (stereo unspecified) ?
A: inactive

Next:
Q: Check the results log: what was the call for COc1cc(N)c2nccc(C)c2c1OC ?
A: inactive

Q: What call does the record list for COc1cc2ncnc(-n3ncc4cc(NC(=O)Nc5ccccc5)ccc43)c2cc1OC ?
A: inactive

Q: Please indicate how the test categorized N#Cc1ccc(NC2c3ccccc3CC2O)cc1 (stereo unspecified) .
A: inactive

Q: Would you mind telling me which call this test gave COc1ccc(/C(=C(\c2ccccc2)[N+](=O)[O-])c2ccc(OCCN3CCCC3)cc2)cc1 ?
A: inactive

Q: Recorded test call requested for CC(=O)Nc1nc(C)c(C(=O)NN)s1
A: inactive

Q: Write down the call the test reported for this compound. Item: CC1(C)C(O)NC(Cl)=C(C#N)C1(C#N)C#N (stereo unspecified)
A: inactive

###

Quick list: growth per entry.
# Test system: SK-MEL-28 melanoma
# Assay Method Text: NCI-60 one-dose screen, 48 h (100 = growth as untreated, 0 = no growth, -100 = all killed)
# Details: 10 µM unless noted
The panel holds about 83,000 compounds, 20% with a hit somewhere; the sample as a whole holds those more often. Calls of active or inactive are those of the source. Rule for the calls: active = growth percent below 10; inactive = the rest.

Record excerpt, results attached:
Q: Sample CCc1c(C)c2ccc(OCC(=O)N=Nc3c(O)[nH]c4ccccc34)c(C)c2oc1=O — what was its growth?
A: 64.8% (inactive)

Q: What value of growth has been reported for the following compound? O=C(Nc1ccc(-n2cc(-c3ccncc3)c(-c3ccc(Cl)c(O)c3)n2)cc1)c1cc(C(F)(F)F)cc(C(F)(F)F)c1
A: 45.9% (inactive)

New cases:
Q: Param item = C=CCN(C)C ; retrieve measured growth.
A: 110% (inactive)

Q: # lookup: growth of COc1cccc(-c2cc(-c3cc4ccccc4oc3=O)nc(N)n2)c1
A: 91.7% (inactive)

Q: I am curious: what growth value has been reported for O=C(/C=C\c1ccc(NCc2ccc(C(=O)O)cc2)cc1)CCl ?
A: 104% (inactive)

Q: Dear colleague, I am looking for the recorded growth of the following compound: COc1cc(-c2c3c(cn2CCN2CCCCC2)-c2oncc2CC3)cc(OC)c1OC
A: 100% (inactive)

Q: Can you look up the measured growth of COc1ccc(C2CC(=O)c3c(O)cc(OC4OC(COC5OC(C)C(O)C(O)C5O)C(O)C(O)C4O)cc3O2)cc1O (centres undefined) for me?
A: 124% (inactive)

Q: Record request: growth value, item CCC(C)C1NC(=O)C(CCCCN)NC(=O)C(CCCCN)NC(=O)C(CC(C)C)NC(=O)C(CCCCN)NC(=O)C(C(C)CC)NC(=O)C(C(C)C)NC(=O)C(C(C)CC)NC(=O)C(CCCCN)NC(=O)C(CCCCN)NC(=O)C(C)NC(=O)C(CCCCN)NC(=O)C(CC(C)C)NC1=O (centres undefined)
A: 48.2% (inactive)

Q: If you can, please state the reported growth value of COc1ccc(OC)c(Cn2cc3c(c2)-c2oncc2CC3)c1 .
A: 50.1% (inactive)
